Value source: patent US11072607B2

Biological target: human RIP1 kinase domain (2-375) (Homo sapiens (Human), UniProt Q13546)
Sequence (Q13546 2-375): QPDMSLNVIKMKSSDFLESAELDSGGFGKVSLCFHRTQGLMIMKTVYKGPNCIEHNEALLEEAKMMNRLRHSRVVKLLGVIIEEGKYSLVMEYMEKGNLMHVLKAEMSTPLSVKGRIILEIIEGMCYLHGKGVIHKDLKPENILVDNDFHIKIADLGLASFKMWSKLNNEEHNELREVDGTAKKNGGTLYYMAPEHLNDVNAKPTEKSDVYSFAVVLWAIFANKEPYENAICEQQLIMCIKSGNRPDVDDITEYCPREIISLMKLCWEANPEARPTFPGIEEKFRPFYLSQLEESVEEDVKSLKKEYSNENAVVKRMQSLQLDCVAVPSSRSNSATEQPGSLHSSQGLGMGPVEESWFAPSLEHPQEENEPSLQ
Experiment: RIP1 kinase inhibition assay (biochemical, Transcreener ADP assay)
Conditions: tight-binding apparent inhibition constant (Ki app, Morrison equation); 50 nM enzyme, 50 uM ATP, 2 hours incubation, fluorescence polarization; read-out: RIP1 Ki
measuredQuantity: Ki (µM)

1. COc1cc2c(cn1)N(C)C(=O)[C@@H](NC(=O)c1nc3n(n1)[C@H](c1ccccc1F)CC3)CC2 (single isomer, unassigned)	0.011
2. CCC(F)(F)[C@@H]1CCc2nc(C(=O)N[C@H]3COc4ccccc4N(C)C3=O)nn21 (single isomer, unassigned)	0.007
3. CN1C(=O)[C@@H](NC(=O)c2ncc3cnn(C4CC4)c3n2)COc2ccccc21	0.022
4. CN1C(=O)[C@@H](NC(=O)c2ncn(Cc3ccccc3)n2)CCc2nn(C)cc21 (single isomer, unassigned)	0.046
5. O=C(N[C@H]1CCc2ncccc2NC1=O)c1nc2n(n1)[C@H](c1ccccc1F)CC2 (single isomer, unassigned)	0.019
6. CN1C(=O)[C@@H](NC(=O)c2ncn(Cc3ccccc3)n2)CCc2c1cnn2C (single isomer, unassigned)	0.014

====

Target: human RIP1 kinase domain (2-375) (Homo sapiens (Human), UniProt Q13546)
Test: RIP1 kinase inhibition assay (biochemical, Transcreener ADP assay)
Details: tight-binding apparent inhibition constant (Ki app, Morrison equation); 50 nM enzyme, 50 uM ATP, 2 hours incubation, fluorescence polarization; read-out: RIP1 Ki
measuredQuantity: Ki

1) CN1C(=O)[C@@H](NC(=O)c2nc3n(n2)CC[C@H]3c2ccccc2)CCc2ncccc21 (single isomer, unassigned)	37 nM
2) O=C(N[C@H]1CCc2cc(F)cc(F)c2NC1=O)c1cc2n(n1)CCOC2c1ccccc1 (stereo partly drawn)	11 nM
3) CN1C(=O)[C@@H](NC(=O)c2ncn(Cc3ccccc3F)n2)CCc2c1cnn2C (single isomer, unassigned)	13 nM

====

Let's look at some compounds and their measured Ki.
Molecular target: human RIP1 kinase domain (2-375) (Homo sapiens (Human), UniProt Q13546)
Assay: RIP1 kinase inhibition assay (biochemical, Transcreener ADP assay)
Conditions: tight-binding apparent inhibition constant (Ki app, Morrison equation); 50 nM enzyme, 50 uM ATP, 2 hours incubation, fluorescence polarization; read-out: RIP1 Ki
measuredQuantity: Ki (nM)

1) CN1C(=O)[C@@H](NC(=O)c2ncn(Cc3ccccc3F)n2)CCc2nn(C)cc21 (single isomer, unassigned)	26
2) CN1C(=O)[C@@H](NC(=O)c2cc3c(cn2)cnn3CC(C)(F)F)COc2ccccc21	29
3) CN1C(=O)[C@@H](NC(=O)c2nc3n(n2)CC[C@H]3c2ccccc2F)CCc2ncccc21 (single isomer, unassigned)	42
4) CN1C(=O)[C@@H](NC(=O)c2nc3n(n2)CC[C@H]3c2ccccc2F)CCn2nccc21 (single isomer, unassigned)	22
5) CN1C(=O)[C@@H](NC(=O)c2nc3n(n2)C(c2ccccc2)CC3F)COc2ccccc21 (stereo partly drawn)	12
6) O=C(N[C@H]1CCc2cc(F)cc(F)c2NC1=O)c1nc2n(n1)[C@H](c1ccccc1)C[C@H]2F (single isomer, unassigned)	31
